study.target: T1, full-length recombinant human PAD4 (human, UniProt Q9UM07 1-663)
T1 construct: Full-length recombinant; also called peptidylarginine deiminase 4
T1 sequence (Q9UM07 whole entry): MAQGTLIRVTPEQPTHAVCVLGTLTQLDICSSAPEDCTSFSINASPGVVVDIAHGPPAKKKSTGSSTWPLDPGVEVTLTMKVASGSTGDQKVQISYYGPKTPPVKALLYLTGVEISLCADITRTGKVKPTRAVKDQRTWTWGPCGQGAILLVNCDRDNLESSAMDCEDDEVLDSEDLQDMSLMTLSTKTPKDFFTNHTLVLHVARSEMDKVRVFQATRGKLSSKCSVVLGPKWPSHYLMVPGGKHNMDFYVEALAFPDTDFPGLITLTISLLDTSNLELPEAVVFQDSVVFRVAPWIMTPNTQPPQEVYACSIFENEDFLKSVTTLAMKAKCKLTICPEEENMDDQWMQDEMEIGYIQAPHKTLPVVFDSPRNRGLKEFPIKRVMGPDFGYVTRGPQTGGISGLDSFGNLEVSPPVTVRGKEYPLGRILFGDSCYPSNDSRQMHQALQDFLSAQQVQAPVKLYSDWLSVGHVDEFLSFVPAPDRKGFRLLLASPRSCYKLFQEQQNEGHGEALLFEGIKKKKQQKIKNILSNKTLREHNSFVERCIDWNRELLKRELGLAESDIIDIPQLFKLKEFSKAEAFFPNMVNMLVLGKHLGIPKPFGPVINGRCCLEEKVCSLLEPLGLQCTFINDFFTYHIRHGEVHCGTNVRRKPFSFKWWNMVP
assay.method.text: ELISA, immobilized human PAD4
Measured O.D. 490/630 at 0.03125 µg/mL, listed per entry for reference.
Respond numerically, and do not add a unit to the figure.

>  <binder>
humanized anti-PAD4 antibody derived from H7, VH H4.32 / VL L4.15 (antibody, IgG1, V domains shown, IgG1 kappa; also called H7 H4.32/L4.15) VH: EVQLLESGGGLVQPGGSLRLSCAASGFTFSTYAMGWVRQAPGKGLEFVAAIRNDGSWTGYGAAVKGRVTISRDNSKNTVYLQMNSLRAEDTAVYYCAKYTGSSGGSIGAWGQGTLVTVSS VL: SYELTQPPSVSVSPGQTARITCSGGSGRYYYGWYQQKPGQAPVTVIYSSTHRPSGIPERFSGSNSGNTTTLTISGVQAEDEADYYCGTADSSSYVFGGGTKLTVLG

>  <readout.kind>
O.D. 490/630 at 0.03125 µg/mL

>  <reported.value>
1.89

$$$$

// field: O.D. 490/630 at 0.03125 µg/mL; key: humanized anti-PAD4 antibody derived from G8, VH H4.15 / VL L4.29 (antibody, human IgG1, kappa, V domains shown, IgG1 kappa; also called G8 H4.15/L4.29) VH: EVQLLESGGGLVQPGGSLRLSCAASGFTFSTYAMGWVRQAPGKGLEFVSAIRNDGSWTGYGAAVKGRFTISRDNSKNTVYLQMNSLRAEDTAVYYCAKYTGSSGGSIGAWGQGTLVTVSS VL: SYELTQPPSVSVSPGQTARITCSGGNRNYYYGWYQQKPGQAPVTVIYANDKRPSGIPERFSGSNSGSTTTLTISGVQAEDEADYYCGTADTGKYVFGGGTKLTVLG ; value = 1.85
